Recorded Cyno ENTPD2 NIH/3T3 Assay IC50 by entry
tested.on: T1, cynomolgus ENTPD2, full length, on cells (cynomolgus macaque, UniProt Q9Y5L3 1-495 (human entry))
T1 chain: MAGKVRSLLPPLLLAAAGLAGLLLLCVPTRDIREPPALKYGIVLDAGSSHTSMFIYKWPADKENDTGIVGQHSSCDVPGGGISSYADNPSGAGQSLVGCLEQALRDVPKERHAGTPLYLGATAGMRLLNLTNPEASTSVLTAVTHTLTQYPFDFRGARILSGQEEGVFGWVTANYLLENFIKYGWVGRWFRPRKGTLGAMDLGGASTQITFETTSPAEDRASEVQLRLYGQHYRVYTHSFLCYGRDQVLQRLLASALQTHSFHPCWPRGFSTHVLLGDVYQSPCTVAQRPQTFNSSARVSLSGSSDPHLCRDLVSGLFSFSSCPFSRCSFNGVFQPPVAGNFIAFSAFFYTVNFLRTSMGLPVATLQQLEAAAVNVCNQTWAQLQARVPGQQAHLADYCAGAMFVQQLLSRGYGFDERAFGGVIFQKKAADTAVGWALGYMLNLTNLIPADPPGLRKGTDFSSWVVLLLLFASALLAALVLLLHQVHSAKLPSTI
experimental.details: cell-based or functional assay
Kindly provide the numeric value in nM only, without the unit symbol.

ANTI-HUMAN ENTPD2 MAB1 (antibody, human IgG1, kappa, V domains shown) VH: EVQLVQSGAEVKKPGESLKISCKASGYTFTDYNMDWVRQMPGKGLEWMGDINPKYDISTYNQQFKGQVTISADKSIRTAYLQWSSLKASDTAMYYCARRGFFLYYGINYYYFDVWGQGTLVTVSS VL: DIQLTQSPSSLSASVGDRVTITCSASSSVSYIHWFQQKPGKAPKLLIYSTSNLASGVPSRFSGSGSGTFFTLTISSLQPEDFATYFCHQWSSYPWTFGQGTKVEIKR    4.1
ANTI-HUMAN ENTPD2 MAB5 (antibody, human IgG1, kappa, V domains shown) VH: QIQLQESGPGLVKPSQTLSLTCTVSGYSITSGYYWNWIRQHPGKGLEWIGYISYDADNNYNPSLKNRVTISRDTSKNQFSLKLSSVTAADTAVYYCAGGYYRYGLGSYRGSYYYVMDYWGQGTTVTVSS VL: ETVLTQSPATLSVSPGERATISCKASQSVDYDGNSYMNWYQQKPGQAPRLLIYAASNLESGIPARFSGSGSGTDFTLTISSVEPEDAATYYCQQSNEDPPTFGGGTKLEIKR    1.5
ANTI-HUMAN ENTPD2 MAB8 (antibody, human IgG1, lambda, V domains shown) VH: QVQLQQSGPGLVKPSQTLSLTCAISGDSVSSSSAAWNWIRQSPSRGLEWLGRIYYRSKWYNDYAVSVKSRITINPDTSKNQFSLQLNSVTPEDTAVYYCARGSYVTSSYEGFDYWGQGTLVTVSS VL: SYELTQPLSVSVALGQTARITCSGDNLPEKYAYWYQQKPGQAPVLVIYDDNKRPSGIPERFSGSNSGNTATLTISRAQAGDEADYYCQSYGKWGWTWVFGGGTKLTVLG    0.9
ANTI-HUMAN ENTPD2 MAB9 (antibody, human IgG1, lambda, V domains shown) VH: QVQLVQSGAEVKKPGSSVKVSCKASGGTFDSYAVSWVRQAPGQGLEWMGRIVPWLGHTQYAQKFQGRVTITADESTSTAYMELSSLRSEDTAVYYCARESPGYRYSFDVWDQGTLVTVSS VL: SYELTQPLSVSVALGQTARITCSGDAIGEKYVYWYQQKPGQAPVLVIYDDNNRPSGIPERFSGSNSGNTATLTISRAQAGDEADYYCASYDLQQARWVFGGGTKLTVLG    0.3
ANTI-HUMAN ENTPD2 MAB10 (antibody, human IgG1, lambda, V domains shown) VH: QVQLVQSGAEVKKPGSSVKVSCKASGGTFDSYAVSWVRQAPGQGLEWMGRIVPWLGFTRYAQKFQGRVTITADESTSTAYMELSSLRSEDTAVYYCARESPGYRYSFDVWDQGTLVTVSS VL: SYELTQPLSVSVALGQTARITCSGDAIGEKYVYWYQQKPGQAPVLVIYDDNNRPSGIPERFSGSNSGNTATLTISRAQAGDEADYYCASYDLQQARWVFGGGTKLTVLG    0.5

Query binder follows.
Query :: Reported Cyno ENTPD2 NIH/3T3 Assay IC50, binder ANTI-HUMAN ENTPD2 MAB6 (antibody, human IgG1, kappa, V domains shown) VH: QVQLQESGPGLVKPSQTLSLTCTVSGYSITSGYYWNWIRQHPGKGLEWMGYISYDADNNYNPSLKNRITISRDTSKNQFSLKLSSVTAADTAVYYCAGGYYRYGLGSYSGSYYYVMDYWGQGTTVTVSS VL: DTQMTQSPSSLSVSVGDRATITCKASQSVDYEGHSYMNWYQQKPGKAPKLLIYAASNLESGVPSRFSGSGSGTDFTLTISSVQPEDFATYYCQQSNEDPPTFGGGTKLEIKR : ____
Result :: 3.3

The measurements presented in this section are drawn from patent US20240336701A1.
